Data origin: patent US9242966B2

- study-system: human KV 1.5 (Homo sapiens)
- Construct: expressed in transfected cells; host or cells: mammalian L-929 cells (mouse fibroblast line)
- experimental-protocol: Block of IKur current in patch clamped L-929 cells expressing human Kv1.5
- Type: cell-based
- assay-conditions: L929, 0.3 μM; patch clamped mammalian L-929 cells stably expressing human Kv1.5 (IKur); read-out: KV1_5% Inh L929 @0.3 μM
Lab note: compare inhibition at 0.3 µM against 80%. Equal or greater, write class 1. Smaller, write class 0.

Solved entries (count: 5):
{"compound": "NS(=O)(=O)c1cncc(-c2nnc(NCc3ccccc3)c3c(-c4ccccc4)cccc23)c1 [Example 8]", "study-system": "human KV 1.5 (Homo sapiens)", "label-value": "class 1"}
{"compound": "C[C@H](Nc1nnc(-c2cncc(S(N)(=O)=O)c2)c2cccc(-c3ccccc3)c12)c1ccccc1 [Example 43]", "study-system": "human KV 1.5 (Homo sapiens)", "label-value": "class 1"}
{"compound": "CC(Nc1nnc(-c2cncc(S(N)(=O)=O)c2)c2cccc(-c3ccccc3)c12)c1ccccn1 (stereo not shown) [Example 33]", "study-system": "human KV 1.5 (Homo sapiens)", "label-value": "class 0"}
{"compound": "OCC(O)c1cncc(-c2nnc(NCc3ccccn3)c3c(-c4ccccc4)cccc23)c1 (racemic) [Example 7]", "study-system": "human KV 1.5 (Homo sapiens)", "label-value": "class 0"}
{"compound": "NC(=O)c1cncc(-c2nnc(NCc3ccccc3)c3c(-c4ccccc4)cccc23)c1 [Example 23]", "study-system": "human KV 1.5 (Homo sapiens)", "label-value": "class 1"}

As a next step, examine the compound that follows.
[ask] Is reported inhibition at 0.3 µM greater than or equal to 80% here: Nc1ccc(-c2nnc(NCc3ccccc3)c3c(-c4ccccc4)cccc23)cn1 [Example 20]
[reply] class 1

* * *

# inhibition at 0.3 µM listing for each entry below
- study-system: human KV 1.5 (Homo sapiens, UniProt P22460)
- Construct: expressed in transfected cells; host or cells: mammalian L-929 cells (mouse fibroblast line)
- Sequence (P22460 whole entry): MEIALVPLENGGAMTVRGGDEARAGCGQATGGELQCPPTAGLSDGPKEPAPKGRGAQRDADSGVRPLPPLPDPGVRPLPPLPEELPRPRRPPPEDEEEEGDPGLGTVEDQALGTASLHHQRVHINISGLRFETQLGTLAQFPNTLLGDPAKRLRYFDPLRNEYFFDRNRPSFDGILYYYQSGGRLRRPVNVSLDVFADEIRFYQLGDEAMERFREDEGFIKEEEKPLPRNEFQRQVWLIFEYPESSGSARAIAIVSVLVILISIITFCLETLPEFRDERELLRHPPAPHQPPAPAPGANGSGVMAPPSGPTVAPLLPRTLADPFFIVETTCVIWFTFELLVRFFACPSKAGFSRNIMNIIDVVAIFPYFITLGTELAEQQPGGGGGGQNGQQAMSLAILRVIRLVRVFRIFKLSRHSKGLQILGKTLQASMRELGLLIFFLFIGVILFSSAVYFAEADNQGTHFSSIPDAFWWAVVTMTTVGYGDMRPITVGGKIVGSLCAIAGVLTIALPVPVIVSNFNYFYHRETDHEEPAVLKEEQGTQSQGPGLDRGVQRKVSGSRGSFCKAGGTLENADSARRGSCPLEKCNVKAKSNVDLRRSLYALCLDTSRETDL
- experimental-protocol: Block of IKur current in patch clamped L-929 cells expressing human Kv1.5
- Assay type: cell-based
- assay-conditions: L929, 0.3 μM; patch clamped mammalian L-929 cells stably expressing human Kv1.5 (IKur); read-out: KV1_5% Inh L929 @0.3 μM

[ask] Could you share which inhibition at 0.3 µM value was measured for "NC(=O)Nc1cncc(-c2nnc(NCc3ccccc3)c3c(-c4ccccc4)cccc23)c1" ?
[reply] 51.1%

[ask] Moving on to the next molecule: "O=C(Nc1cncc(-c2nnc(NCc3ccccc3)c3c(-c4ccccc4)cccc23)c1)OCC(F)(F)F"
[reply] 78%

[ask] Moving on to the next molecule: "O=C(NCc1ccc(OC(F)(F)F)cc1)c1cncc(-c2nnc(NCc3ccccn3)c3c(-c4ccccc4)cccc23)c1"
[reply] 96.5%

[ask] Moving on to the next molecule: "COCCNC(=O)c1cncc(-c2nnc(NCc3ccccn3)c3c(-c4ccccc4)cccc23)c1"
[reply] 51.1%

[ask] Moving on to the next molecule: "NS(=O)(=O)c1cncc(-c2nnc(NC[C@H](O)c3ccccc3)c3c(-c4ccccc4)cccc23)c1"
[reply] 93.5%

* * *

# inhibition at 0.3 µM listing for each entry below
- study-system: human KV 1.5 (Homo sapiens)
- Construct: expressed in transfected cells; host or cells: mammalian L-929 cells (mouse fibroblast line)
- experimental-protocol: Block of IKur current in patch clamped L-929 cells expressing human Kv1.5
- Type: cell-based
- assay-conditions: L929, 0.3 μM; patch clamped mammalian L-929 cells stably expressing human Kv1.5 (IKur); read-out: KV1_5% Inh L929 @0.3 μM
Output spec: scalar in %, unitless text.

Known results for compounds:
{"compound": "CC(=O)Nc1cncc(-c2nnc(NCc3ccccc3)c3c(-c4ccccc4)cccc23)c1 [Example 2]", "inhibition at 0.3 µM [%]": 83.9}
{"compound": "O=C(N[C@H]1CCC[C@@H]1OCc1ccccc1)c1cncc(-c2nnc(NCc3ccccn3)c3c(-c4ccccc4)cccc23)c1 [Example 49]", "inhibition at 0.3 µM [%]": 93.9}
{"compound": "NS(=O)(=O)c1cncc(-c2nnc(NCc3ccccn3)c3c(-c4ccccc4)cccc23)c1 [Example 1]", "inhibition at 0.3 µM [%]": 79.5}

Next compound, please.
[ask] human KV 1.5 (Homo sapiens) / inhibition at 0.3 µM / CCOC(=O)c1cncc(-c2nnc(NCc3ccccc3)c3c(-c4ccccc4)cccc23)c1 [Example 24] : value?
[reply] 96.5
